The entries below are paired with their reported IC50.
# Test system: p-IKKa levels in L363 (NIK translocated multiple myeloma) cells
# PROTOCOL TEXT: Assay 2: Effect of compounds on p-IKKa levels in L363 (NIK translocated multiple myeloma) cells
# Type: cell-based
# TEST CONTEXT: Homo sapiens, L-363, 6 h, read-out: Assay 2 IC50 (nM), p-IKKa (Ser 176/180) in BAFF stimulated L363 cells with MG132, 6 h; average if tested more than once

MOLECULE: Cc1ncccc1Nc1nccc(-c2cccc(-c3cc([C@]4(O)CCN(C)C4=O)no3)n2)n1
IC50: < 50 nM
//
MOLECULE: CC(Nc1nccc(-c2cccc(-c3cc([C@]4(O)CCN(C)C4=O)on3)n2)n1)c1cocn1 (some centres unmarked)
IC50: 50 to 500 nM
//
MOLECULE: Cc1cnnc(Nc2nccc(-c3cccc(-c4cc([C@]5(O)CCN(C)C5=O)on4)n3)n2)n1
IC50: > 500 nM
//
MOLECULE: [2H]c1cc(-c2cccc(-n3cc([C@]4(O)CCN(C)C4=O)nn3)n2)nc(Nc2ccn(CC)n2)n1
IC50: < 50 nM
//
MOLECULE: CN1CC[C@@](O)(c2cc(-c3cccc(-c4ccnc(Nc5cnn(CCN)c5)n4)n3)no2)C1=O
IC50: 50 to 500 nM
//
MOLECULE: CN1CC[C@@](O)(c2cc(-c3cccc(-c4ccnc(Nc5cnc(CO)cn5)n4)n3)no2)C1=O
IC50: 50 to 500 nM
//
MOLECULE: CN1C(=O)[C@](O)(c2cc(-c3cccc(-c4ccnc(Nc5cnn(C)c5Cl)n4)n3)no2)[C@H]2C[C@H]21
IC50: 50 to 500 nM
//
MOLECULE: CN1CC[C@@](O)(c2cc(-c3cccc(-c4ccnc(Nc5ccnc6c5CCO6)n4)n3)no2)C1=O
IC50: < 50 nM
//
MOLECULE: C[C@H](Nc1nccc(-c2cccc(-c3cc([C@]4(O)CCN(C)C4=O)on3)n2)n1)C(=O)N1CCCC1
IC50: 50 to 500 nM
//
MOLECULE: C[C@H](Nc1nccc(-c2cccc(-c3cc([C@]4(O)CCN(C)C4=O)on3)n2)n1)C(N)=O
IC50: 50 to 500 nM
//
MOLECULE: CN1CC[C@@](O)(c2cnn(-c3cccc(-c4ccnc(Nc5cnn(C)c5Cl)n4)n3)c2)C1=O (single isomer, unassigned)
IC50: 50 to 500 nM
//
MOLECULE: CN1CC[C@@](O)(c2cc(-c3cccc(-c4ccnc(N[C@@H]5COC[C@H]5F)n4)n3)no2)C1=O
IC50: 50 to 500 nM
//
MOLECULE: CN1CC[C@@](O)(c2cc(-c3cccc(-c4ccnc(NC5CCSC5)n4)n3)no2)C1=O (mixture of isomers)
IC50: 50 to 500 nM
//
MOLECULE: CN1CC[C@@](O)(c2cc(-c3cccc(-c4ccnc(N[C@@H]5CC6CCC5O6)n4)n3)no2)C1=O (some centres unmarked)
IC50: 50 to 500 nM
